target: Cellular tumor antigen p53 (Homo sapiens) (UniProt P04637); assay: Primary qHTS for small molecule compounds that upregulate eGFP-tagged delta133p53alpha (in N-terminal) cells. (AID 2060322); settings: NCI-H358 eGFP-delta133p53alpha fluorescence, 24 h; active compounds read high;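 also: cells pre-induced with doxycycline then dosed without doxycycline; 0% = DMSO vehicle and 100% = reference activator; nearly all actives have a fitted effect of over 75% in size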
Sequence (P04637 whole entry, looked up): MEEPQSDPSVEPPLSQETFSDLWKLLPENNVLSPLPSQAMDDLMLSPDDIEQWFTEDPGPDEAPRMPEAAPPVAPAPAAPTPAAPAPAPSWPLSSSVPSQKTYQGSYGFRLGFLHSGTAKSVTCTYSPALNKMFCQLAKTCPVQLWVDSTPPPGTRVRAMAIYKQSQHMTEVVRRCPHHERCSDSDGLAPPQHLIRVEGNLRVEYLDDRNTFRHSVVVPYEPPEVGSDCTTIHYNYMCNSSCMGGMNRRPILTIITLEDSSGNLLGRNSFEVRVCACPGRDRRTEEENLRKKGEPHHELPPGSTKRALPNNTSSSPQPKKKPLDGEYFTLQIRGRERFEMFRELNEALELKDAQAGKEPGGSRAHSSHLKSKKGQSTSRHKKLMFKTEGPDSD
Results filed as inconclusive are left out.
Property label: activation (%)

>  <Compound>
CC(=O)C=C=C1C(C)(C)CC(O)CC1(C)O[C@@H]1O[C@H](CO[C@H]2OC[C@](O)(CO)[C@H]2O)[C@@H](O)[C@H](O)[C@H]1O (stereo partly specified)

>  <Unit symbol>
%

>  <Value reported>
-14.3

$$$$
>  <Compound>
CCOC(=O)NNc1ccc(N(CC)CC(C)O)nn1 (stereo unspecified)

>  <Unit symbol>
%

>  <Value reported>
15.1

$$$$
>  <Compound>
CC1OC(O[C@@H]2[C@@H](O)[C@H](OC(=O)[C@]34CCC(C)(C)C[C@H]3C3=CCC5[C@@]6(C)CC[C@H](O[C@@H]7O[C@H](C(=O)O)[C@@H](O)[C@H](O[C@@H]8OC[C@@H](O)[C@H](O)[C@H]8O)[C@H]7O[C@@H]7O[C@H](CO)[C@H](O)[C@H](O)[C@H]7O)[C@@](C)(C=O)C6CC[C@@]5(C)[C@]3(C)C[C@H]4O)O[C@H](C)[C@@H]2OC2OC(C)C(OC3OCC(O)C(O)C3O)C(O)C2O)C(O)C(O)C1O (stereo partly specified)

>  <Unit symbol>
%

>  <Value reported>
-3.57

$$$$
>  <Compound>
Fc1ccc2c(CCNCc3cccc(OCC(F)(F)C(F)F)c3)c[nH]c2c1

>  <Unit symbol>
%

>  <Value reported>
3.34

$$$$
>  <Compound>
COc1ccncc1C(=O)NC(=O)Nc1ccc(-c2ccccc2)c(C(F)(F)F)c1

>  <Unit symbol>
%

>  <Value reported>
-0.477

$$$$
>  <Compound>
COc1c2cc(c(O)c1OC)-c1cc(ccc1O)CCC(O)CCCC2 (stereo unspecified)

>  <Unit symbol>
%

>  <Value reported>
11.5

$$$$

---

target: Aldehyde dehydrogenase 1A1 (Homo sapiens) (UniProt P00352); test: qHTS for Inhibitors of the Aldehyde Dehydrogenase Family (ALDH1A1) Confirmatory screens (AID 2061316); conditions: ALDH inhibition qHTS; series mostly up to 47.3 µM; also: nearly all actives have a fitted effect of over 65% in size
Records with an inconclusive call do not appear. Activity calls are given as the source filed them. Calls follow the shape of the dose curve; as a rule, active = well fitted inhibition curve with a large enough effect; inconclusive = small, poorly fitted or top-dose-only effect; inactive = no such curve, though single readings can be large or run the other way.
Classes used: active, inactive

>  <Compound>
COc1ccc(-c2nc3cccc(OC)c3c(=O)n2Cc2ccccc2)cc1COc1ccc(NC(C)=O)cc1

>  <Target of assay>
Aldehyde dehydrogenase 1A1 (Homo sapiens) (UniProt P00352)

>  <Category label>
active

$$$$
>  <Compound>
O=C1Cc2cc(S(=O)(=O)N3CCN(c4ccc(C(F)(F)F)cc4)CC3)ccc2N1

>  <Target of assay>
Aldehyde dehydrogenase 1A1 (Homo sapiens) (UniProt P00352)

>  <Category label>
inactive

$$$$
>  <Compound>
N[C@@H](CCNCc1ccc(Cl)cc1)C(=O)N1CCCCC1

>  <Target of assay>
Aldehyde dehydrogenase 1A1 (Homo sapiens) (UniProt P00352)

>  <Category label>
inactive

$$$$
>  <Compound>
Brc1ccc([C@H]2CN3CCSC3=N2)cc1

>  <Target of assay>
Aldehyde dehydrogenase 1A1 (Homo sapiens) (UniProt P00352)

>  <Category label>
inactive

$$$$
>  <Compound>
Cc1ccc(S(=O)(=O)NC(N)=NCCC[C@@H](NC(=O)CNC(=O)c2ccccc2)C(=O)Nc2cc(C(F)(F)F)ccc2Cl)cc1

>  <Target of assay>
Aldehyde dehydrogenase 1A1 (Homo sapiens) (UniProt P00352)

>  <Category label>
inactive

$$$$
>  <Compound>
NC(Cc1c[nH]c2ccccc12)C(=O)NC(CCC(=O)O)C(=O)O (stereo not given)

>  <Target of assay>
Aldehyde dehydrogenase 1A1 (Homo sapiens) (UniProt P00352)

>  <Category label>
inactive

$$$$
>  <Compound>
Cc1ccc(NS(=O)(=O)c2ccc3c(c2)CC(=O)N3)cc1C

>  <Target of assay>
Aldehyde dehydrogenase 1A1 (Homo sapiens) (UniProt P00352)

>  <Category label>
active

$$$$
>  <Compound>
O=C(O)c1cn(C2CC2)c2cc(N3C[C@@H]4C[C@H]3CN4)c(F)cc2c1=O

>  <Target of assay>
Aldehyde dehydrogenase 1A1 (Homo sapiens) (UniProt P00352)

>  <Category label>
active

$$$$
>  <Compound>
CC1CC(=O)[C@]2(O)C(C(=O)OCCc3ccc(O)c(O)c3)=CO[C@@H](O[C@@H]3O[C@H](CO)[C@@H](O)[C@H](O)[C@H]3O)[C@H]12 (stereo not given in full)

>  <Target of assay>
Aldehyde dehydrogenase 1A1 (Homo sapiens) (UniProt P00352)

>  <Category label>
active

$$$$
>  <Compound>
COc1cc(N2C(=O)c3ccccc3C2=O)c2ncccc2c1

>  <Target of assay>
Aldehyde dehydrogenase 1A1 (Homo sapiens) (UniProt P00352)

>  <Category label>
inactive

$$$$
>  <Compound>
CC1(C)CC(=O)c2c(C(F)(F)F)nn(-c3ccc(C(N)=O)c(NC4CCC(OC(=O)CN)CC4)c3)c2C1 (stereo not given)

>  <Target of assay>
Aldehyde dehydrogenase 1A1 (Homo sapiens) (UniProt P00352)

>  <Category label>
inactive

$$$$
>  <Compound>
O=c1onc2cnc3ccccc3n12

>  <Target of assay>
Aldehyde dehydrogenase 1A1 (Homo sapiens) (UniProt P00352)

>  <Category label>
active

$$$$
>  <Compound>
O=C(Cc1ccc(Cl)c(Cl)c1)Nc1ccc(S(=O)(=O)Nc2cccc(C(=O)O)c2)cc1

>  <Target of assay>
Aldehyde dehydrogenase 1A1 (Homo sapiens) (UniProt P00352)

>  <Category label>
inactive

$$$$
>  <Compound>
COc1ccccc1-c1cc(NCCc2ccccn2)c2onc(C)c2n1

>  <Target of assay>
Aldehyde dehydrogenase 1A1 (Homo sapiens) (UniProt P00352)

>  <Category label>
inactive

$$$$
>  <Compound>
Cc1nnc(C(=O)NC(C)(C)c2nc(C(=O)NCc3ccc(F)cc3)c(O)c(=O)n2C)o1

>  <Target of assay>
Aldehyde dehydrogenase 1A1 (Homo sapiens) (UniProt P00352)

>  <Category label>
inactive

$$$$
>  <Compound>
O=S1(=O)CCN(Cc2cc(NCC3CCOCC3)c3[nH]c(-c4ccccc4)cc3c2)CC1

>  <Target of assay>
Aldehyde dehydrogenase 1A1 (Homo sapiens) (UniProt P00352)

>  <Category label>
inactive

$$$$
>  <Compound>
O=C(Cc1ccc(Cl)c(Cl)c1)Nc1ccc(S(=O)(=O)O)cc1

>  <Target of assay>
Aldehyde dehydrogenase 1A1 (Homo sapiens) (UniProt P00352)

>  <Category label>
inactive

$$$$
>  <Compound>
COC(=O)N1CCN(Cc2cccc(NC(=O)Nc3ccc(C)nc3)c2F)CC1

>  <Target of assay>
Aldehyde dehydrogenase 1A1 (Homo sapiens) (UniProt P00352)

>  <Category label>
inactive

$$$$
>  <Compound>
Cc1nc2ccccn2c1P(=O)(c1ccccc1)c1ccccc1

>  <Target of assay>
Aldehyde dehydrogenase 1A1 (Homo sapiens) (UniProt P00352)

>  <Category label>
inactive

$$$$
>  <Compound>
COc1ccc(C2Nc3ccccc3C(=O)N2Cc2ccccc2)cc1COc1ccc(F)cc1 (stereo not given)

>  <Target of assay>
Aldehyde dehydrogenase 1A1 (Homo sapiens) (UniProt P00352)

>  <Category label>
inactive

$$$$

The reported numbers originate from PubChem BioAssay (NCATS).
